Entry source: PubChem BioAssay AID2148

- Tested system: Melanin-concentrating hormone receptor 1 (Homo sapiens) (UniProt Q99705)
- Protocol text: antagonism of human MCHR1 receptor – cell-based, fluorescence, counter-screen for GPR7 antagonist project (AID 2148);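 note: 0% = vehicle with agonist and 100% = vehicle without agonist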
- Run conditions: MCHR1-expressing cells, fluorescence antagonist assay; at 4.4 µM; hits give high values
The campaign covered roughly 2,400 compounds. About 1,500 (62%) were called active. The set was probably picked from earlier hits. A selection follows.
Here the recorded inhibition is given for each entry.
Lab book: enter the figure in %, no units written.

Example results:
Compound	inhibition / %
COc1ccc(C2Nc3ccccc3C(=O)N2Cc2ccccc2)cc1Cn1nnc2ccccc21 (stereo unspecified)	32.1
Cc1ccc(NC(=O)CN2C(=O)NC(C)(c3ccc(Cl)cc3)C2=O)c(Br)c1 (stereo unspecified)	6.97

Task item: Give inhibition for the following compound: COc1cc(NC(=O)CN2C(=O)NC(C)(c3ccc(OC(F)F)cc3)C2=O)cc(OC)c1OC (stereo unspecified)
Reply: 28.4

Task item: Supply recorded inhibition for `O=C(CC(=O)Nc1ccc(Cl)c(Cl)c1)N/N=C/c1ccc(O)cc1` here.
Reply: 12.4

Task item: Indicate the recorded inhibition value for this compound: Cc1cc(OC(C)C(=O)NC2CC(C)(C)NC(C)(C)C2)c2c(C)cc(=O)oc2c1 (stereo unspecified)
Reply: -9.17

Task item: Please indicate inhibition recorded for COc1ccc([N+](=O)[O-])cc1N(CC(O)CN(CC(C)C)CC(C)C)S(=O)(=O)c1ccc(C)cc1 (stereo unspecified)
Reply: 66
